// data source = patent US20080221218A1

Assay: Potentiometric titrations: protonation constants
Assay type: physicochemical
Conditions: stepwise; potentiometry, 0.1 M KCl, 25° C.
Description: Potentiometric measurements were conducted using a Metrohm 792SM Titrino automated burette fitted with a combined glass electrode and an in-house designed jacketed glass cell thermostated at 25° C. suitable for small sample volumes (5 mL). […] Sample concentrations were typically 1.0-5.0×10^−3 M. A known excess of HCl was added to ensure full protonation of the receptor. The degree of protonation of our receptors was calculated from the onset of titration curve. […]
Note to self: values exactly at 8 are yes (1). So Protonation constant (log K) H+ + H2L2+ ⇄ H3L3+ at or above 8 is yes (1), below is no (0).

{"columns": ["COMPOUND", "CLASSIFICATION"],
 "data": [
  ["CN(CCCN)CCCNC(=O)/C=C/C(=O)NCCCN(C)CCCN", "yes (1)"],
  ["CN(CCCN)CCCNC(=O)/C=C\\C(=O)NCCCN(C)CCCN", "no (0)"],
  ["CN1CCCNCc2cccc(c2)CNCCCN(C)CCCNC(=O)/C=C\\C(=O)NCCC1", "no (0)"],
  ["NCCCNCCCCNCCCN [Compound 4, spermine, reference compound]", "yes (1)"],
  ["CN(CCCN)CCCNC(=O)[C@@H]1C2C=CC(C2)[C@H]1C(=O)NCCCN(C)CCCN", "no (0)"]
]}

---

test: Potentiometric titrations: protonation constants; type: physicochemical; settings: cumulative; potentiometry, 0.1 M KCl, 25° C.
The following compounds are shown together with reported Protonation constant (log K) 3H+ + L ⇄ H3L3+ values.
ENDPOINT LABEL: Protonation constant (log K) 3H+ + L ⇄ H3L3+

{"columns": ["COMPOUND", "TEST VALUE"],
 "data": [
  ["CN(CCCN)CCCNC(=O)/C=C/C(=O)NCCCN(C)CCCN", 28.42],
  ["NCCCNCCCCNCCCN [Compound 4, spermine, reference compound]", 29.50],
  ["CN(CCCN)CCCNC(=O)[C@@H]1C2C=CC(C2)[C@H]1C(=O)NCCCN(C)CCCN", 25.67],
  ["CN(CCCN)CCCNC(=O)/C=C\\C(=O)NCCCN(C)CCCN", 26.52],
  ["CN1CCCNCc2cccc(c2)CNCCCN(C)CCCNC(=O)/C=C\\C(=O)NCCC1", 25.14]
]}

---

assay: Potentiometric titrations: protonation constants; assay type: physicochemical; settings: stepwise; potentiometry, 0.1 M KCl, 25° C.
ENDPOINT LABEL: Protonation constant (log K) H+ + HL+ ⇄ H2L2+

{"columns": ["COMPOUND", "TEST VALUE"],
 "data": [
  ["CN(CCCN)CCCNC(=O)[C@@H]1C2C=CC(C2)[C@H]1C(=O)NCCCN(C)CCCN", 8.73],
  ["CN(CCCN)CCCNC(=O)/C=C\\C(=O)NCCCN(C)CCCN", 9.02],
  ["NCCCNCCCCNCCCN [Compound 4, spermine, reference compound]", 9.99],
  ["CN1CCCNCc2cccc(c2)CNCCCN(C)CCCNC(=O)/C=C\\C(=O)NCCC1", 8.50],
  ["CN(CCCN)CCCNC(=O)/C=C/C(=O)NCCCN(C)CCCN", 9.60]
]}

---

assay: Potentiometric titrations: binding of inorganic phosphate (equimolar KH2PO4 and receptor); conditions: A = phosphate; potentiometry, 0.1 M KCl, 25° C.
ENDPOINT LABEL: Binding constant (Log K) H3L3+ + HA2− ⇄ H4LA+

{"columns": ["MOLECULE", "TEST VALUE"],
 "data": [
  ["CN1CCCNCc2cccc(c2)CNCCCN(C)CCCNC(=O)/C=C\\C(=O)NCCC1 [Compound 3]", 10.24],
  ["CN(CCCN)CCCNC(=O)[C@@H]1C2C=CC(C2)[C@H]1C(=O)NCCCN(C)CCCN [Compound 14]", 5.52],
  ["CN(CCCN)CCCNC(=O)/C=C\\C(=O)NCCCN(C)CCCN [Compound 2]", 5.27],
  ["CN(CCCN)CCCNC(=O)/C=C/C(=O)NCCCN(C)CCCN [Compound 1]", 2.90]
]}

---

experiment: Potentiometric titrations: binding of inorganic phosphate (equimolar KH2PO4 and receptor); settings: overall constant, A = phosphate; potentiometry, 0.1 M KCl, 25° C.
ENDPOINT LABEL: Protonation and binding constant (Log K) 5H+ + L + A3− ⇄ H5LA2+

{"columns": ["RECORD SMILES", "TEST VALUE"],
 "data": [
  ["CN1CCCNCc2cccc(c2)CNCCCN(C)CCCNC(=O)/C=C\\C(=O)NCCC1", "53.76 (5)"],
  ["CN(CCCN)CCCNC(=O)/C=C/C(=O)NCCCN(C)CCCN", 50.44],
  ["CN(CCCN)CCCNC(=O)/C=C\\C(=O)NCCCN(C)CCCN", "50.30 (7)"],
  ["CN(CCCN)CCCNC(=O)[C@@H]1C2C=CC(C2)[C@H]1C(=O)NCCCN(C)CCCN", "50.09 (3)"]
]}

---

experiment: Potentiometric titrations: protonation constants; assay type: physicochemical; settings: stepwise; potentiometry, 0.1 M KCl, 25° C.
Protonation constant (log K) H+ + H3L3+ ⇄ H4L4+ overview
ENDPOINT LABEL: Protonation constant (log K) H+ + H3L3+ ⇄ H4L4+

{"columns": ["COMPOUND", "TEST VALUE"],
 "data": [
  ["CN1CCCNCc2cccc(c2)CNCCCN(C)CCCNC(=O)/C=C\\C(=O)NCCC1", 2.97],
  ["CN(CCCN)CCCNC(=O)/C=C/C(=O)NCCCN(C)CCCN", 7.08],
  ["CN(CCCN)CCCNC(=O)/C=C\\C(=O)NCCCN(C)CCCN", 3.75],
  ["NCCCNCCCCNCCCN [Compound 4, spermine, reference compound]", 8.08],
  ["CN(CCCN)CCCNC(=O)[C@@H]1C2C=CC(C2)[C@H]1C(=O)NCCCN(C)CCCN", 2.24]
]}

---

test: Potentiometric titrations: binding of inorganic phosphate (equimolar KH2PO4 and receptor); details: overall constant, A = phosphate; potentiometry, 0.1 M KCl, 25° C.
Below, each entry is listed with its recorded Protonation and binding constant (Log K) 4H+ + L + A3− ⇄ H4LA+.
ENDPOINT LABEL: Protonation and binding constant (Log K) 4H+ + L + A3− ⇄ H4LA+

{"columns": ["RECORD SMILES", "TEST VALUE"],
 "data": [
  ["CN(CCCN)CCCNC(=O)[C@@H]1C2C=CC(C2)[C@H]1C(=O)NCCCN(C)CCCN", "42.67 (3)"],
  ["CN(CCCN)CCCNC(=O)/C=C\\C(=O)NCCCN(C)CCCN", "43.27 (7)"],
  ["CN1CCCNCc2cccc(c2)CNCCCN(C)CCCNC(=O)/C=C\\C(=O)NCCC1", "46.85 (4)"],
  ["CN(CCCN)CCCNC(=O)/C=C/C(=O)NCCCN(C)CCCN", 42.87]
]}

---

assay: Potentiometric titrations: protonation constants; assay type: physicochemical; conditions: cumulative; potentiometry, 0.1 M KCl, 25° C.
List of Protonation constant (log K) 2H+ + L ⇄ H2L2+ values.
ENDPOINT LABEL: Protonation constant (log K) 2H+ + L ⇄ H2L2+

{"columns": ["COMPOUND", "TEST VALUE"],
 "data": [
  ["CN(CCCN)CCCNC(=O)/C=C\\C(=O)NCCCN(C)CCCN", 19.06],
  ["CN(CCCN)CCCNC(=O)/C=C/C(=O)NCCCN(C)CCCN", 20.05],
  ["CN1CCCNCc2cccc(c2)CNCCCN(C)CCCNC(=O)/C=C\\C(=O)NCCC1", 18.82],
  ["CN(CCCN)CCCNC(=O)[C@@H]1C2C=CC(C2)[C@H]1C(=O)NCCCN(C)CCCN", 18.49],
  ["NCCCNCCCCNCCCN [Compound 4, spermine, reference compound]", 20.63]
]}

---

assay: Potentiometric titrations: protonation constants; format: physicochemical; conditions: potentiometry, 0.1 M KCl, 25° C.
ENDPOINT LABEL: Protonation constant (log K) H+ + L ⇄ HL+

{"columns": ["COMPOUND", "TEST VALUE"],
 "data": [
  ["NCCCNCCCCNCCCN [Compound 4, spermine, reference compound]", 10.64],
  ["CN1CCCNCc2cccc(c2)CNCCCN(C)CCCNC(=O)/C=C\\C(=O)NCCC1", 10.32],
  ["CN(CCCN)CCCNC(=O)[C@@H]1C2C=CC(C2)[C@H]1C(=O)NCCCN(C)CCCN", 9.76],
  ["CN(CCCN)CCCNC(=O)/C=C/C(=O)NCCCN(C)CCCN", 10.45],
  ["CN(CCCN)CCCNC(=O)/C=C\\C(=O)NCCCN(C)CCCN", 10.04]
]}
